The measured values listed here are drawn from paper PMC10668032.

Recorded binding signal values for a group of sequences are listed next.
Biological target: SIX1 homeodomain (reference allele) (human, UniProt Q15475 108-198)
Sequence: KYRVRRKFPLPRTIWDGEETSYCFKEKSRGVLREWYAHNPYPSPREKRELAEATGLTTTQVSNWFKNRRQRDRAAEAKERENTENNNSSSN
Experiment: universal protein binding microarray; Universal all-10-mer PBM (8x60K, AMADID 030236), 300 nM GST-tagged protein, Alexa Fluor 488 anti-GST; buffer, salt, pH and temperature not stated (as in Berger); high values mean tight binding
Conditions: protein: ivt; tags: N-terminal GST; dsDNA, one strand shown
Over roughly 33,000 sequences, “e-score” has its median near -0.053; the highest 2% begin near 0.38. The sample holds the highest values, similar sequences and a random draw of the others, so the mix is not that of the screen.
Please reply with the bare figure in E-score and do not write the unit itself.

Previously resolved entries follow.
- Primary sequence: "AGATCCCT"
  binding signal / E-score: 0.292
- Primary sequence: "ACAGGTAT"
  binding signal / E-score: 0.312
- Primary sequence: "GGGTATCA"
  binding signal / E-score: 0.497

Looking for the measured binding signal of ATTTATAC , can you help?
0.22

Looking for the measured binding signal of AGATCCCG , can you help?
0.302
